conditions: in ethyl acetate, 298.15 K
value-type: solubility (mole fraction)
The response must contain the number and no unit.

Ask: Write down solubility (mole fraction) measured for item O=Cc1cc(Br)c(O)c(Br)c1
Result: 0.0098

----------
details: in n-octanol, 318.15 K
value-type: solubility (mole fraction)

Ask: Write down solubility (mole fraction) measured for item O=Cc1cc(Br)c(O)c(Br)c1
Result: 0.024

----------
settings: in isopropanol, 323.15 K
value-type: solubility (mole fraction)

Ask: Write down solubility (mole fraction) measured for item O=Cc1cc(Br)c(O)c(Br)c1
Result: 0.011

----------
conditions: in n-butanol, 313.15 K
value-type: solubility (mole fraction)
The response must contain the number and no unit.

Ask: Write down solubility (mole fraction) measured for item O=Cc1cc(Br)c(O)c(Br)c1
Result: 0.0112

----------
conditions: in DMF, 298.15 K
value-type: solubility (mole fraction)
The response must contain the number and no unit.

Ask: Write down solubility (mole fraction) measured for item O=Cc1cc(Br)c(O)c(Br)c1
Result: 0.0137

----------
settings: in n-propanol, 308.15 K
value-type: solubility (mole fraction)
The response must contain the number and no unit.

Ask: Write down solubility (mole fraction) measured for item O=Cc1cc(Br)c(O)c(Br)c1
Result: 0.00779
